test.details: Apparent passive permeability of the compound
Format: physicochemical
particulars: not told
Label 1 when Papp is at or above 30 ×10⁻⁶ cm/s; otherwise label -1.

> print(dat)
                                   molecule  cat
1  N#CC1(c2cccnc2)CCN(Cc2cc3c(c4ccccc24)CN([C@H]2CCCC[C@@H]2O)C3=O)CC1    1
2  Cc1ccnc(C2(C#N)CCN(Cc3cc4c(c5ccccc35)CN([C@H]3CCCC[C@@H]3O)C4=O)CC2)c1   -1
3  Cc1cccc(C2(C#N)CCN(Cc3cc4c(c5ccccc35)CN([C@H]3CCCC[C@@H]3O)C4=O)CC2)n1   -1

input: Reported Papp at or above 30 ×10⁻⁶ cm/s? "N#CC1(c2ccccc2)CCN(Cc2cc3c(c4ccccc24)CN([C@H]2CCCC[C@@H]2O)C3=O)CC1"
output: -1

input: Reported Papp at or above 30 ×10⁻⁶ cm/s? "N#CC1(c2cccnn2)CCN(Cc2cc3c(c4ccccc24)CN([C@H]2CCCC[C@@H]2O)C3=O)CC1"
output: -1

input: Reported Papp at or above 30 ×10⁻⁶ cm/s? CC1c2c(cc(CN3CCC(C#N)(c4ccccn4)CC3)c3ccccc23)C(=O)N1[C@H]1CCCC[C@@H]1O (mixture of isomers)
output: -1
